In this section we review reported Tm values for a set of sequences.
- Assay Notes: melting temperature; fluorescence melt of hairpins on a sequencing array, two-state fit, raised by 9.35 °C to match UV melts
- Run Parameters: sodium 0.088 M
Experimental Readout: Tm (°C)

{"Seq Text": "GTTCATCGAAAGATTAAC (((.(((....))).)))", "Experimental Readout": "Tm", "Meas Value": 32.6}
{"Seq Text": "GCTACGCGAAAGCGAAGC (((.(((....))).)))", "Experimental Readout": "Tm", "Meas Value": 57.5}
{"Seq Text": "GATCGTGCCCACGATC ((((((....))))))", "Experimental Readout": "Tm", "Meas Value": 59.7}
{"Seq Text": "GCAAGGCGAAAGCAGTGC (((..((....))..)))", "Experimental Readout": "Tm", "Meas Value": 50.9}
{"Seq Text": "GATCCAGGAAACTGGGTC ((.((((....)))).))", "Experimental Readout": "Tm", "Meas Value": 49.9}
{"Seq Text": "GTCAGTGAAAACTGAC ((((((....))))))", "Experimental Readout": "Tm", "Meas Value": 60.5}

====

Overview of reported folding enthalpy across a group of sequences:
- Assay Notes: folding enthalpy; higher = less favourable; fluorescence melt of hairpins on a sequencing array, two-state fit
- Run Parameters: sodium 0.088 M

{"Seq Text": "GATTCCGAAAGGATGATC ((((((....)))..)))", "folding enthalpy (kcal/mol)": -21.8}
{"Seq Text": "GTTAGCGAAAGCTAGAAC ((((((....)))..)))", "folding enthalpy (kcal/mol)": -10}
{"Seq Text": "GGAAGCGAAAGCTACTCC ((((((....)))..)))", "folding enthalpy (kcal/mol)": -13.3}
{"Seq Text": "GATGGACGAAAGTCTATC (((.(((....))).)))", "folding enthalpy (kcal/mol)": -30.9}
{"Seq Text": "GTTGACGGAAACGCCAAC ((((.((....)).))))", "folding enthalpy (kcal/mol)": -39.8}
{"Seq Text": "GTGATGCCGAAAGGCCAC (((..(((....))))))", "folding enthalpy (kcal/mol)": -13.5}

====

- Assay Notes: folding enthalpy; higher = less favourable; fluorescence melt of hairpins on a sequencing array, two-state fit
- Run Parameters: sodium 0.088 M
The threshold is inclusive: folding enthalpy of exactly -20 kcal/mol counts as Met; values below receive Not met.

{"Seq Text": "GGGCGGCGAAAGCCCCCC (((.(((....))).)))", "Category Label": "Met"}
{"Seq Text": "GCTTGCGAAAGCAGTAGC ((((((....)))..)))", "Category Label": "Met"}
{"Seq Text": "GATCACATCGGTGATC ((((((....))))))", "Category Label": "Not met"}
{"Seq Text": "GGATTCGAAAGAACATCC ((((((....)))..)))", "Category Label": "Met"}
{"Seq Text": "GGTTTGGAAACAAACC ((((((....))))))", "Category Label": "Not met"}
{"Seq Text": "GATCTAGGGCTAGATC ((((((....))))))", "Category Label": "Not met"}
{"Seq Text": "CGATCACGGAAACGTTCG (((..(((....))))))", "Category Label": "Met"}
{"Seq Text": "GGTCACGAAAGTGGCACC ((((((....)))..)))", "Category Label": "Met"}
{"Seq Text": "GATGTCGGAAACGATATC (((.(((....))).)))", "Category Label": "Not met"}
{"Seq Text": "GCGTGAGCGAAAGCTCGC (((..(((....))))))", "Category Label": "Met"}
{"Seq Text": "GCGAATTGTCGC ((((....))))", "Category Label": "Met"}
{"Seq Text": "GATCGACAAATCGATC ((((((....))))))", "Category Label": "Not met"}
